The measurements presented in this section are drawn from the NIST ThermoML archive (doi:10.1021/je700266n).

Conditions: 313.15 K; 101 kPa; Liquid
Attribute: mass density

{"columns": ["compound", "mass density [kg/m3]"],
 "data": [
  ["CCCCn1cc[n+](C)c1.F[P-](F)(F)(F)(F)F [1-butyl-3-methylimidazolium hexafluorophosphate]", 1354.3],
  ["CCCCn1cc[n+](C)c1.F[B-](F)(F)F [1-butyl-3-methylimidazolium tetrafluoroborate]", 1181.43],
  ["c1ccccc1", 856.82],
  ["CC#N", 760.68],
  ["CCCO", 789.07]
]}

====

Attribute: mass density
Conditions: 333.15 K; 101 kPa; Liquid

{"columns": ["compound", "mass density (kg/m3)"],
 "data": [
  ["CC#N", 738.19],
  ["CCCCn1cc[n+](C)c1.F[B-](F)(F)F [1-butyl-3-methylimidazolium tetrafluoroborate]", 1166.89],
  ["CCCCn1cc[n+](C)c1.F[P-](F)(F)(F)(F)F [1-butyl-3-methylimidazolium hexafluorophosphate]", 1337.7],
  ["c1ccccc1", 835.76],
  ["CCCO", 771.75]
]}

====

Attribute: mass density
Settings: 298.15 K; 101 kPa; Liquid
reported metric: mass density (kg/m3)

{"columns": ["molecule", "reported metric", "measured number"],
 "data": [
  ["CC#N [acetonitrile]", "mass density", 776.93],
  ["CCCCn1cc[n+](C)c1.F[P-](F)(F)(F)(F)F [1-butyl-3-methylimidazolium hexafluorophosphate]", "mass density", 1367.22],
  ["c1ccccc1 [benzene]", "mass density", 873.11],
  ["CCCO [propan-1-ol]", "mass density", 801.01],
  ["CCCCn1cc[n+](C)c1.F[B-](F)(F)F [1-butyl-3-methylimidazolium tetrafluoroborate]", "mass density", 1192.07]
]}

====

Settings: 323.15 K; 101 kPa; Liquid
Would you mind labelling by mass density? At or over 800 kg/m3 is Met, under is Not met.

{"columns": ["compound", "label"],
 "data": [
  ["CC#N [acetonitrile]", "Not met"],
  ["CCCCn1cc[n+](C)c1.F[P-](F)(F)(F)(F)F [1-butyl-3-methylimidazolium hexafluorophosphate]", "Met"],
  ["c1ccccc1 [benzene]", "Met"],
  ["CCCCn1cc[n+](C)c1.F[B-](F)(F)F [1-butyl-3-methylimidazolium tetrafluoroborate]", "Met"]
]}

====

Settings: 303.15 K; 101 kPa; Liquid
Attribute: mass density
reported metric: mass density (kg/m3)

{"columns": ["molecule", "reading unit", "measured number"],
 "data": [
  ["CCCO", "kg/m3", 796.89],
  ["CCCCn1cc[n+](C)c1.F[B-](F)(F)F [1-butyl-3-methylimidazolium tetrafluoroborate]", "kg/m3", 1188.37],
  ["CCCCn1cc[n+](C)c1.F[P-](F)(F)(F)(F)F [1-butyl-3-methylimidazolium hexafluorophosphate]", "kg/m3", 1362.86],
  ["CC#N", "kg/m3", 771.44],
  ["c1ccccc1", "kg/m3", 867.59]
]}

====

Attribute: mass density
Details: 343.15 K; 101 kPa; Liquid

{"columns": ["compound", "mass density (kg/m3)"],
 "data": [
  ["c1ccccc1", 824.89],
  ["CCCCn1cc[n+](C)c1.F[P-](F)(F)(F)(F)F [1-butyl-3-methylimidazolium hexafluorophosphate]", 1330.76],
  ["CCCCn1cc[n+](C)c1.F[B-](F)(F)F [1-butyl-3-methylimidazolium tetrafluoroborate]", 1159.97],
  ["CC#N", 726.94],
  ["CCCO", 762.86]
]}
